# protocolConditions: in n-propanol, 298.15 K
experimentalEndpoint: solubility (mole fraction)
One number for each entry.

Notebook: CC1=C(O)C(=O)C(C)O1 (stereo unspecified) , solubility (mole fraction) read as 0.216

###

# protocolConditions: in n-butanol, 288.15 K
experimentalEndpoint: solubility (mole fraction)
Give bare numbers.

Summary for this compound, CC1=C(O)C(=O)C(C)O1 (stereo unspecified) : solubility (mole fraction) is 0.124

###

# protocolConditions: in n-butanol, 283.15 K
experimentalEndpoint: solubility (mole fraction)

In plain terms, CC1=C(O)C(=O)C(C)O1 (stereo unspecified) has a documented solubility (mole fraction) of 0.0954

###

# protocolConditions: in methanol, 308.15 K
experimentalEndpoint: solubility (mole fraction)
Answers are plain numbers.

Summary for this compound, CC1=C(O)C(=O)C(C)O1 (stereo unspecified) : solubility (mole fraction) is 0.374
